Where do the numbers come from? From patent US20200339702A1.

target.entity: T1, rhesus monkey ERBB3 His tag, monomeric (rhesus monkey (Macaca mulatta), UniProt P21860 20-643 (human entry), limits assumed)
T1 chain: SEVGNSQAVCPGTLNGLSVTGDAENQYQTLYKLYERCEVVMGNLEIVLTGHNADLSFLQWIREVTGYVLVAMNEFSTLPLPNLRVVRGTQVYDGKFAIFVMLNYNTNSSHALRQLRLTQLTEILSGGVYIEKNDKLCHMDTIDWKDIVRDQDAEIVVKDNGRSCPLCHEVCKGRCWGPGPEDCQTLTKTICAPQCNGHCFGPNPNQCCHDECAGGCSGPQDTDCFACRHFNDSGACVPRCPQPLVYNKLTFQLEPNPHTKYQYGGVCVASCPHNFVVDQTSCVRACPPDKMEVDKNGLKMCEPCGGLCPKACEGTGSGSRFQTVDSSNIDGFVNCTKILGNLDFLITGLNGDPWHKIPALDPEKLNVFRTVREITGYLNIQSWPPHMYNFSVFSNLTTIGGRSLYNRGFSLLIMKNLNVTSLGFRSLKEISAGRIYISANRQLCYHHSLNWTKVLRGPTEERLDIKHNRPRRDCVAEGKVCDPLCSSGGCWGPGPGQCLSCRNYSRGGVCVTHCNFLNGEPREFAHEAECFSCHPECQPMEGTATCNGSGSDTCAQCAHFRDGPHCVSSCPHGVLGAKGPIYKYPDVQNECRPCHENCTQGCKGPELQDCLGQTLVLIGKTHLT
experiment.description: SPR (Biacore), captured IgG, monomeric ERBB3-His analyte
Parameter: kon. Scope: all listed entries.
Answer with a number only, understood to be in M⁻¹ s⁻¹.

Known results for binders:
• 15D03 IgG1null (antibody, V domains shown, Human IgG1null and human Ckappa) VH: QVQLVESGGGLVKPGGSLRLSCAASGFTFSDYGMSWIRQAPGKGLEWVSTISDSGSYIYYADSVKGRFTISRDNAKNSLYLQMNSLRAEDTAVYYCAREWGDYDGFDHWGQGTLVTVSS VL: DIQMTQSPSSLSASVGDRVTITCRASQEISSYLSWYQQKPGKAPKLLIYAASSLQSGVPSRFSGSGSGTDFTLTISSLQPEDFATYYCLQYDSTPLTFGGGTKVEIK = 1.8e+07
• MH3 IgG1null (antibody, V domains shown, Designer (Maximally Humanized) clone; Human IgG1null and human Ckappa) VH: QVQLVESGGGLVKPGGSLRLSCAASGFTFSDYSMSWIRQAPGKGLEWVSTISDSGSTIYYADSVKGRFTISRDNAKNSLYLQMNSLRAEDTAVYYCAREWGDYDGFDFWGQGTLVTVSS VL: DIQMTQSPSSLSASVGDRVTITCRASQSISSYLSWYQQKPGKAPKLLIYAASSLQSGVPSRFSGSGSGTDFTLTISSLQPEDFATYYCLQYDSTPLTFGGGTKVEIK = 1.8e+07

Could you now consider this next binder?
Return reported kon; argument: MH4 IgG1null (antibody, V domains shown, Designer (Maximally Humanized) clone; Human IgG1null and human Ckappa) VH: QVQLVESGGGLVKPGGSLRLSCAASGFTFSDYGMSWIRQAPGKGLEWVSTISDSGSYIYYADSVKGRFTISRDNAKNSLYLQMNSLRAEDTAVYYCAREWGDYDGFDEWGQGTLVTVSS VL: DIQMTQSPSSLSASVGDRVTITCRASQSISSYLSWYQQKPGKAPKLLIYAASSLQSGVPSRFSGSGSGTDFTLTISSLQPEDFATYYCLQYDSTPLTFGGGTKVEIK 2.2e+07
